# assay.system: BACE1 (Homo sapiens, UniProt P56817)
# Construct: purchased Sigma-Aldrich Co. LLC; CS0010
# Sequence (P56817 46-501): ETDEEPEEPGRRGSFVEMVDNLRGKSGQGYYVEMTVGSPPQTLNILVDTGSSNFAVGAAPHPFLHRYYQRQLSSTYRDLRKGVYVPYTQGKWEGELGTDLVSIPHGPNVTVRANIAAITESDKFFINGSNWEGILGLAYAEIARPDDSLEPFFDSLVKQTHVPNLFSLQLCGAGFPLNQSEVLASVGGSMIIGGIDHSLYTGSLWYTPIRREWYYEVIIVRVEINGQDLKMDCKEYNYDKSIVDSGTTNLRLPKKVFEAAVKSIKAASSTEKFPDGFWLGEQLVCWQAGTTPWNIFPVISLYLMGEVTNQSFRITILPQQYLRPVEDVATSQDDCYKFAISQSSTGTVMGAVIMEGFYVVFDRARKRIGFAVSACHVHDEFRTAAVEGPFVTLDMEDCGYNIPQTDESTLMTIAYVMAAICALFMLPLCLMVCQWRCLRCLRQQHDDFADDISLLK
# assay.info: Cell-free FRET assay for BACE1 activity (β-Secretase (BACE1) Activity Detection Kit CS0010)
# Format: biochemical
# assay.context: 10 μM; Table S2, thirty-four in vitro tested compounds; mean of at least three independent experiments in triplicate
Peptide text beside a SMILES is read from it. * marks the point of attachment. Cbz = O=C(OCc1ccccc1)*
quantity.name: Average percent inhibition at 10 μM (%)

molecule	Average percent inhibition at 10 μM [%]
O=C1c2ccccc2C(=O)c2c(NCCCNCCO)ccc(NCCCNCCO)c21	17.0
CC(=O)c1cccc(OCC(O)CN2CCN(c3ccc(C)cc3)CC2)c1 (stereo not drawn)	10.6
O=C(NC(Cc1cnc[nH]1)C(=O)NC(Cc1ccc(O)cc1)C(=O)O)OCc1ccccc1 (stereo not drawn) [NSC333463] (Cbz-His-Tyr-OH; configuration not given here)	13.4

----------
# assay.system: BACE1 (Homo sapiens, UniProt P56817)
# Construct: purchased Sigma-Aldrich Co. LLC; CS0010
# assay.info: Cell-free FRET assay for BACE1 activity (β-Secretase (BACE1) Activity Detection Kit CS0010)
# Assay type: biochemical
# assay.context: 10 μM; mean of at least three independent experiments performed in triplicate; read-out: Average Percent Inhibition at 10 μM
Peptide text beside a SMILES is read from it.
quantity.name: inhibition at 10 µM (%)

The following molecules have reported results that may help.
molecule	result.units	inhibition at 10 µM
CC1(C)N=C(N)N=C(N)N1c1cccc(OCCCOc2ccc(NC(=O)CBr)cc2)c1 [Compound 22]	%	18.1
Cc1cc(=O)oc2cc(OCC(O)CN3CCN(c4ccc(F)cc4)CC3)ccc12 (stereo not drawn) [Compound 12]	%	33.5
NC(Cc1ccccc1)C(=O)NCC(=O)NC(Cc1ccccc1)C(=O)NCC(=O)O (stereo not drawn) [Compound 15] (H-FGFG-OH; configuration not given here)	%	30.7
Cc1ccc(S(=O)(=O)Oc2ccc3oc4c(CO)ccc(NCCN(C)C)c4c(=O)c3c2)cc1 [Compound 19]	%	21.2
CCN(CC)CCNc1ccc(CO)c2oc3ccccc3c(=O)c12 [Compound 18]	%	20.6
O=C1c2ccccc2C(=O)c2c3c(cc(NCCNCCO)c21)N(CCO)CCN3 [Compound 20]	%	19.5

1: CC(CCc1ccc(O)cc1)NCCc1ccc(O)c(O)c1 (stereo not drawn) [Compound 16, dobutamine]
2: CC(=O)[C@]1(O)Cc2c(O)c3c(c(O)c2[C@@H](O[C@H]2C[C@H](N)[C@H](O)[C@H](C)O2)C1)C(=O)c1ccccc1C3=O [Compound 21, idarubicin]
3: COc1ccc(C(=O)/C=C/c2cn(CC(O)CN3CCN(C)CC3)c3ccccc23)cc1 (stereo not drawn) [Compound 11]
Put the entries in order of inhibition at 10 µM, starting with the largest number. Rank them, then answer with their labels in that order.
3, 1, 2
(3: 50.3%, 1: 29.9%, 2: 18.1%)

----------
# assay.system: BACE1 (Homo sapiens)
# Construct: purchased Sigma-Aldrich Co. LLC; CS0010
# assay.info: Cell-free FRET assay for BACE1 activity (β-Secretase (BACE1) Activity Detection Kit CS0010)
# Format: biochemical
# assay.context: 10 μM; Table S2, thirty-four in vitro tested compounds; mean of at least three independent experiments in triplicate
quantity.name: Average percent inhibition at 10 μM (%)

The following molecules have reported results that may help.
molecule	result.units	Average percent inhibition at 10 μM
N#CC(NCCCNC(C#N)c1ccccc1)c1ccccc1 (centres unmarked) [NSC81537]	%	8.6
COc1cc(C(O)C(O)c2cc(CN3CCOCC3)c(O)c(OC)c2)cc(CN2CCOCC2)c1O (centres unmarked) [NSC55229]	%	12.1
CC(=O)c1ccccc1OCC(O)CN1CCN(c2cccc(C(F)(F)F)c2)CC1 (centres unmarked) [NSC147843]	%	9.6

A: CC(=O)c1ccc(OCC(O)CN2CCN(c3ccccc3)CC2)c(C)c1 (centres unmarked) [NSC147841]
B: CC(=O)c1ccccc1OCC(O)CN1CCN(c2ccccc2)CC1 (centres unmarked) [NSC147850]
Given the listed items, does A or B have the lesser reported Average percent inhibition at 10 μM? Your answer should be the label of the entry you select.
B

----------
# assay.system: BACE1 (Homo sapiens, UniProt P56817)
# Construct: purchased Sigma-Aldrich Co. LLC; CS0010
# assay.info: Cell-free FRET assay for BACE1 activity (β-Secretase (BACE1) Activity Detection Kit CS0010)
# Type: biochemical
# assay.context: 10 μM; mean of at least three independent experiments performed in triplicate; read-out: Average Percent Inhibition at 10 μM
quantity.name: inhibition at 10 µM (%)

molecule	result.units	inhibition at 10 µM
O=C(CCc1ccccc1)c1ccccc1OCC(O)CN1CCCCC1 (stereo not drawn)	%	34.7
O=C1c2c(O)ccc(O)c2C(=O)c2c(NCCNCCO)ccc(NCCNCCO)c21	%	22.6
CC(=O)Nc1ccc(N2C(=O)CC(NCc3ccc(Cl)cc3Cl)C2=O)cc1 (stereo not drawn)	%	31.3
